Assay: Tissue distribution
Details: both, SD, rat, kidney, iv, 6 μmol/kg
Measure: concentration at 15 min

So what's the measured concentration at 15 min for this one? CO[C@H]1C(=O)[C@]2(C)[C@@H](OC)C[C@H]3OC[C@@]3(OC(C)=O)[C@H]2[C@H](OC(=O)c2ccccc2)[C@]2(O)C[C@H](OC(=O)[C@H](O)[C@@H](NC(=O)OC(C)(C)C)c3ccccc3)C(C)=C1C2(C)C
550 ng/g

====

Assay: Tissue distribution
Details: both, SD, rat, spleen, iv, 6 μmol/kg
Experimental: Male and female SD rats (200–220 g) received intravenous injections of CTX or CTX-DTPA (6 μmol/kg). CTX was dissolved in 2.5% Tween 80/2.5% EtOH/saline, while CTX-DTPA used saline alone. Blood samples were collected at 5 min to 24 h post-dose. […] Plasma and tissue samples were processed by liquid-liquid extraction with n-butanol and analyzed via LC-MS/MS (Agilent Poroshell 120 EC-C18 column; 0.05% formic acid/acetonitrile gradient). […]
Measure: concentration at 2 h (ng/g)
Numbers only, in ng/g.

So what's the measured concentration at 2 h for this one? CO[C@H]1C(=O)[C@]2(C)[C@@H](OC)C[C@H]3OC[C@@]3(OC(C)=O)[C@H]2[C@H](OC(=O)c2ccccc2)[C@]2(O)C[C@H](OC(=O)[C@H](O)[C@@H](NC(=O)OC(C)(C)C)c3ccccc3)C(C)=C1C2(C)C
160

Each recorded value in this set is attributed to paper PMC12689286.
